A collection of binders and their measured koff
Target: T1, Recombinant human TSLP-his (human, UniProt Q969D9 29-159)
T1 construct: Prepared in-house; Amine-coupled to CM5 chip in SPR, loaded on APS sensors in Octet, biotin-labeled in the capture ELISA, unlabeled in the cell functional assays; also called human TSLP-his protein
Assay: SPR, Biacore T200; TSLP-his amine-coupled to CM5 chip, antibody as analyte; 1:1 Langmuir fit

Mouse D1C2H1H1 (antibody, V domains shown, Mouse hybridoma mAb) VH: QVTLKESGPGILQPSQTLSLTCSFSGFSLSTYGMGIGWIRLPSGKGLEWLASIWWDDNRYFNAALKSRLTISKDASKNQVFLKIASVDTADTATYYCARIEDGYYSYHSYWGQGTLVTVSA VL: DIVLTQSPASLAVSLGQRATISCKASQSVDFDGDSYMNWFQQKPGQPPKLLIYAASNLVSGIPARFSGSGSGTDFTLNIHPVEEEDAATYYCQQIDEDPYTFGGGTKLEIE ... < 1e-05 s⁻¹
1F5H12D7 (antibody, V domains shown) VH: QVQLQQPGTELVKPGASVKMSCKASGYTFTTYWMHWVKQRPGQGLEWIGVIDPSDSDTTYNQKFKGKATLTVDTSSSTAYMQLSSLTSEDSAVYYCTRSLDGYYDYWGQGTTLTVSS VL: DIQMTQSPASLSASVGETVTITCRPTENIYSYLAWYQQKQGKSPHLLVYFARTLAEGVPSRFSGSGSGTQFSLKINSLQPEDFGIYYCQHHYGTPWTFGGGTKLEIK ... < 1e-05 s⁻¹

Proceed to the following item.
Briefly, koff measured for mouse 1C5F12E9 (antibody, V domains shown, also called mouse anti-TSLP 1C5F12E9 antibody) VH: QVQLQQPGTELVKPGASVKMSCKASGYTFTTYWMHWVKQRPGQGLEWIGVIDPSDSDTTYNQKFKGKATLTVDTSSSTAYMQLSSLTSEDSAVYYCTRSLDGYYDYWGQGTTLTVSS VL: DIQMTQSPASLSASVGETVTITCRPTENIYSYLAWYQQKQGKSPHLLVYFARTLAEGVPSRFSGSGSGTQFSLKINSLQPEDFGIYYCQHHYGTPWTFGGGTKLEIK : < 1e-05 s⁻¹

# credit: patent US20220289833A1
